Target: CK2α (Homo sapiens)
Test: biochemical
Settings: read-out: Inhibition @10 μM
Returns one of condition met or condition not met; condition met when inhibition at 10 µM is >= 50%.

Use these answered entries as a reference point.
CCc1ccccc1-c1ccc(CNCCc2nc3ccc(OC)cc3[nH]2)cc1Cl.Cl [Compound 29] | condition met
CCc1ccccc1-c1ccc(CNCCc2nc3ccc([N+](=O)[O-])cc3[nH]2)cc1Cl [Compound 28] | condition not met
CCc1ccccc1-c1ccc(CNCCc2nc3cccc(C)c3[nH]2)cc1Cl [Compound 24] | condition not met
CCc1ccccc1-c1c(Cl)cc(CNCCc2nc3ccc(OC)cc3[nH]2)cc1Cl [Compound 36] | condition not met
CCc1ccccc1-c1c(Cl)cc(CNCCc2nc3cccc(OC)c3[nH]2)cc1Cl [Compound 35] | condition not met
CCc1ccccc1-c1ccc(CNCCc2nc3cccc(OC)c3[nH]2)cc1Cl.Cl [Compound 26] | condition met
CCc1ccccc1-c1c(Cl)cc(CNCCc2nc3ccccc3[nH]2)cc1Cl [CAM4712] | condition met
CCc1ccccc1-c1ccc(CNCCc2nc3ccc(C)cc3[nH]2)cc1Cl [Compound 27] | condition not met
CCc1ccccc1-c1ccc(CNCCc2nc3ccccc3[nH]2)cc1OC [Compound 33] | condition not met
CCc1ccccc1-c1ccc(CNCCc2nc3ccccc3[nH]2)cc1C [Compound 31] | condition not met

Query: Can CCc1ccccc1-c1ccc(CNCCc2nc3ccccc3[nH]2)cc1C(F)(F)F [Compound 32] be said to have inhibition at 10 µM at or above 50%?
Result: condition not met

Query: Can CCc1ccccc1-c1ccc(CNCCc2nc3ccccc3[nH]2)cc1OC(F)(F)F [Compound 34] be said to have inhibition at 10 µM at or above 50%?
Result: condition not met

====

Target: CK2α (Homo sapiens, UniProt P68400)
Sequence (P68400 2-329): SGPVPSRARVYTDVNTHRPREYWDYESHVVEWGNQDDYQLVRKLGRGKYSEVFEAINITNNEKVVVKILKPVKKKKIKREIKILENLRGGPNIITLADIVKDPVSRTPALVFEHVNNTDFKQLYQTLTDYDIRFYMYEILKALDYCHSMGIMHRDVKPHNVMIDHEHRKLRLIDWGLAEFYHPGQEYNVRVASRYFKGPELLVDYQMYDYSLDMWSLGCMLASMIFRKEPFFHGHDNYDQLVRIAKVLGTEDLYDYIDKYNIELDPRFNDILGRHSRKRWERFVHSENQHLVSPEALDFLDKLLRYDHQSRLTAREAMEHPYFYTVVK
Conditions: ITC
readout: Entropy (cal/mol/deg)
# value in cal/mol/deg; strip the unit string

Cl.NCc1ccc(-c2cccc3ccccc23)c(Cl)c1 | -11

Query: I would be grateful if you could share the reported Entropy for COc1ccccc1-c1ccc(CN)cc1Cl.Cl .
Result: -23.2

Query: I would be grateful if you could share the reported Entropy for Cc1cc(F)ccc1-c1ccc(CN)cc1Cl.Cl .
Result: -5.21

Query: I would be grateful if you could share the reported Entropy for CCc1ccccc1-c1c(Cl)cc(CN)cc1Cl.O=C(O)C(F)(F)F .
Result: 11.8

====

Target: CK2α (Homo sapiens)
Assay: biochemical
Details: read-out: Inhibition of the kinase activity @ 500 μM
readout: inhibition at 500 µM (%)
# value in %; strip the unit string

Clc1cc(CNCCc2ccccc2)ccc1-c1ccccc1 [Compound 17] | 42

Query: Notebook entry, CK2α (Homo sapiens) assay: inhibition at 500 µM of Clc1cc(CNCc2ccccc2)ccc1-c1ccccc1 [Compound 16] = ?
Result: 54

Query: Notebook entry, CK2α (Homo sapiens) assay: inhibition at 500 µM of Clc1cc(CNCCCc2ccccc2)ccc1-c1ccccc1 [Compound 18] = ?
Result: 40

Query: Notebook entry, CK2α (Homo sapiens) assay: inhibition at 500 µM of Clc1cc(CNCc2ccc[nH]2)ccc1-c1ccccc1 [Compound 19] = ?
Result: 52

Query: Notebook entry, CK2α (Homo sapiens) assay: inhibition at 500 µM of Clc1cc(CNCCc2cnc[nH]2)ccc1-c1ccccc1 [Compound 20] = ?
Result: 50

====

Target: CK2α (Homo sapiens)
Conditions: ITC
# strict inequality: Enthalpy < -3 kcal/mol yields Condition met, everything else yields Condition not met

Use these answered entries as a reference point.
CCc1ccccc1-c1c(Cl)cc(CN)cc1Cl.O=C(O)C(F)(F)F | Condition met
CCc1ccccc1-c1c(Cl)cc(CNCCc2nc3ccccc3[nH]2)cc1Cl | Condition met
COc1ccccc1-c1ccc(CN)cc1Cl.Cl | Condition not met

Query: Take the compound Cl.NCc1cc(Cl)c(-c2ccccc2)c(Cl)c1 and say whether its Enthalpy is less than -3 kcal/mol.
Result: Condition met

Query: Take the compound CC(C)c1ccccc1-c1ccc(CN)cc1Cl.Cl and say whether its Enthalpy is less than -3 kcal/mol.
Result: Condition not met

Query: Take the compound Cl.NCc1ccc(-c2ccccc2O)c(Cl)c1 and say whether its Enthalpy is less than -3 kcal/mol.
Result: Condition met

Query: Take the compound Cc1cc(F)ccc1-c1ccc(CN)cc1Cl.Cl and say whether its Enthalpy is less than -3 kcal/mol.
Result: Condition met

====

The entries below come with measured LE (ligand efficiency) values attached.
Molecular target: CK2α (Homo sapiens)
Conditions: LE = ΔG/[number of heavy atoms]
API doc: respond with a numeric literal and nothing else, no unit.

Solved entries (count: 3):
NCc1ccc(-c2ccccc2F)c(Cl)c1 | 0.32
Cl.NCc1ccc(-c2cccc3ccccc23)c(Cl)c1 | 0.27
CCc1ccccc1-c1c(Cl)cc(CN)cc1Cl.O=C(O)C(F)(F)F | 0.41

Query: I would be grateful if you could share the reported LE (ligand efficiency) for Cc1cc(F)ccc1-c1ccc(CN)cc1Cl.Cl .
Result: 0.33

Query: I would be grateful if you could share the reported LE (ligand efficiency) for Cl.NCc1cc(Cl)c(-c2ccccc2)c(Cl)c1 .
Result: 0.43

====

Molecular target: CK2α (Homo sapiens, UniProt P68400)
Settings: LE = ΔG/[number of heavy atoms]
readout: LE (ligand efficiency)
API doc: respond with a numeric literal and nothing else, no unit.

Query: I would be grateful if you could share the reported LE (ligand efficiency) for Cl.NCc1ccc(-c2ccccc2O)c(Cl)c1 [Compound 7] .
Result: 0.30

Query: I would be grateful if you could share the reported LE (ligand efficiency) for COc1ccccc1-c1ccc(CN)cc1Cl.Cl [Compound 5] .
Result: 0.30

Query: I would be grateful if you could share the reported LE (ligand efficiency) for CC(C)c1ccccc1-c1ccc(CN)cc1Cl.Cl [Compound 4] .
Result: 0.29

Query: I would be grateful if you could share the reported LE (ligand efficiency) for Cc1ccccc1-c1ccc(CN)cc1Cl.Cl [Compound 2] .
Result: 0.38

====

The entries below come with measured Entropy values attached.
Molecular target: CK2α (Homo sapiens, UniProt P68400)
Settings: ITC
# value in cal/mol/deg; strip the unit string

Query: I would be grateful if you could share the reported Entropy for NCc1ccc(-c2ccccc2F)c(Cl)c1 [Compound 6] .
Result: -25.4

Query: I would be grateful if you could share the reported Entropy for CC(C)c1ccccc1-c1ccc(CN)cc1Cl.Cl [Compound 4] .
Result: -23.2

Query: I would be grateful if you could share the reported Entropy for Cc1ccccc1-c1ccc(CN)cc1Cl.Cl [Compound 2] .
Result: 3.11

Query: I would be grateful if you could share the reported Entropy for Cl.NCc1ccc(-c2ccccc2O)c(Cl)c1 [Compound 7] .
Result: -3.34

Query: I would be grateful if you could share the reported Entropy for CCc1ccccc1-c1c(Cl)cc(CNCCc2nc3ccccc3[nH]2)cc1Cl [CAM4712] .
Result: 9.46

Query: I would be grateful if you could share the reported Entropy for Cl.NCc1cc(Cl)c(-c2ccccc2)c(Cl)c1 [Compound 14] .
Result: 9.78

====

Target: CK2α (Homo sapiens, UniProt P68400)
Conditions: ITC
The entries below come with measured Enthalpy values attached.
# value in kcal/mol; strip the unit string

Cl.NCc1ccc(-c2cccc3ccccc23)c(Cl)c1 | -8.425
NCc1ccc(-c2ccccc2F)c(Cl)c1 | -1.253

// next item, Enthalpy requested
Query: Notebook entry, CK2α (Homo sapiens, UniProt P68400) assay: Enthalpy of Cc1ccccc1-c1ccc(CN)cc1Cl.Cl = ?
Result: -5.054
